Molecular target: Histamine H3 receptor (Homo sapiens, UniProt Q9Y5N1)
Sequence (Q9Y5N1 whole entry): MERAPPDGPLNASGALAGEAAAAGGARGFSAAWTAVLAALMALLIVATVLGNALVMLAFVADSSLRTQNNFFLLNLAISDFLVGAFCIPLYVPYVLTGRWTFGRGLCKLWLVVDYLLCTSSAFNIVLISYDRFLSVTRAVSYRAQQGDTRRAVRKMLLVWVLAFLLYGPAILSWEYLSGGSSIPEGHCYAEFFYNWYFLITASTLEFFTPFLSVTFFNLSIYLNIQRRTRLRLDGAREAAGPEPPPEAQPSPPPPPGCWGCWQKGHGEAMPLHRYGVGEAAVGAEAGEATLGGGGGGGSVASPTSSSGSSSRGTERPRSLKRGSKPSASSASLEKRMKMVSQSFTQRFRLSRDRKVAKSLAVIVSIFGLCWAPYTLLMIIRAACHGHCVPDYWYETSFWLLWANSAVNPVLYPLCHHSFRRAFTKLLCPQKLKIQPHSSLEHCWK
Assay: Antagonist activity at human histamine H3 receptor expressed in CHO cells assessed as inhibition of forskolin/R-alpha-methylhistamine-induced cAMP accumulation after 1.5 hrs by TR-FRET immunoassay
MEASURE: IC50 (nM)
Reply numerically in nM, unit not repeated.

Known IC50 results, listed for orientation:
1. N#Cc1ccc(CCCCNC(=N)SCCCN2CCCCC2)cc1 ... 2
2. N=C(NCCCCN1CCCCC1)SCCCN1CCCCC1 ... 6.31
3. N=C(NCCc1ccc(Cl)cc1)SCCCN1CCCC1 ... 31.6
4. O=C(CCCCc1ccc(Cl)cc1)NCCCN1CCCCC1 ... 316

Please examine the following record next.
IC50 measured on N=C(NCCc1ccc(Cl)cc1)SCCCN1CCOCC1 = 316

====

Tested on: Rattus norvegicus
Test: Increase of histamine release in Wistar rat hypothalamus at 10 uM administered through dialysis membrane by HPLC-fluorometric based microdialysis relative to control
Assay type: functional
Below, each entry is listed with its recorded Activity.
Write the numeric value and append its unit.

Known Activity results, listed for orientation:
1) Cl.N=C(NCCCc1ccc(Cl)cc1)SCCCN1CCCCC1 ... 102.2%
2) Cl.N=C(NCc1ccc(Cl)cc1)SCCCN1CCCCC1 ... 134.4%
3) Cl.N=C(NCCCCc1ccc(Cl)cc1)SCCCN1CCCCC1 ... 101.2%

Activity measured on Cl.N=C(NCCCCCc1ccccc1)SCCCN1CCCCC1 = 90.5%

Activity measured on N=C(NCc1ccc(Cl)cc1)SCCCc1c[nH]cn1 = 145.6%

Activity measured on Cl.N=C(NCCc1ccc(Cl)cc1)SCCCN1CCCCC1 = 145.8%

====

Biological target: Histamine H3 receptor (Homo sapiens, UniProt Q9Y5N1)
Assay: Antagonist activity at human histamine H3 receptor expressed in CHO cells assessed as inhibition of forskolin/R-alpha-methylhistamine-induced cAMP accumulation after 1.5 hrs by TR-FRET immunoassay
MEASURE: IC50 (nM)
Reply numerically in nM, unit not repeated.

1. Cl.N=C(NCc1ccc(Cl)cc1)SCCCN1CCCCC1 ... 79.4
2. Cl.N=C(NCCc1ccc(Cl)cc1)SCCCN1CCCCC1 ... 7.94
3. O=C(CCCN1CCCCC1)NCCCCc1ccc(Cl)cc1 ... 126
4. Cl.N=C(NCCCCc1ccc(Cl)cc1)SCCCN1CCCCC1 ... 6.31
5. N=C(NCc1ccc(Cl)cc1)SCCCN1CCOCC1 ... 1580
6. Cl.N=C(NCCCc1ccc(Cl)cc1)SCCCN1CCCCC1 ... 6.31
7. Cl.N=C(NCCCCCc1ccccc1)SCCCN1CCCCC1 ... 31.6
8. O=C(CCCN1CCCCC1)NCCCCc1ccc(C(F)(F)F)cc1 ... 126
9. CN1CCN(CCCSC(=N)NCc2ccc(Cl)cc2)CC1 ... 1260
10. N=C(NCc1ccc(Cl)cc1)SCCCN1CCCC1 ... 20

IC50 measured on N=C(NCc1ccc(Cl)cc1)SCCCN1CCNCC1 = 6310

IC50 measured on N=C(NCCCCc1ccc(C(F)(F)F)cc1)SCCCN1CCCCC1 = 15.8

====

Molecular target: UniProt Q9Y5N1
Assay: Antagonist activity at human histamine H3 receptor expressed in CHO cells assessed as inhibition of forskolin/R-alpha-methylhistamine-induced cAMP accumulation after 1.5 hrs by TR-FRET immunoassay
Assay type: functional, cell-based
Conditions: read-out: pA2 (converted)
Rule: Kb below 2 nM gives Met. Equal to or above 2 nM gives Not met.

Q: Threshold test, Kb < 2 nM: Cl.N=C(NCCCCCc1ccccc1)SCCCN1CCCCC1
A: Not met

Q: Threshold test, Kb < 2 nM: N=C(NCCCCc1ccc(C(F)(F)F)cc1)SCCCN1CCCCC1
A: Not met
